This collection of values is drawn from patent US20230072421A1.

Task for the reader: assign each of the following molecules its reported T/Carea.
- System: LNCaP human prostate cancer cells
- measurement.protocol: LNCaP xenograft efficacy study (T/C tumor area)
- Assay type: in vivo, SCID mice
- test.settings: Example V; day 27 after start of therapy; once 750 kBq/kg
Give bare numbers.

Hey, can you go through the list below and give me T/Carea for every item?
1. CC1=CC2=C3[O][227Th-4]45678([O]C9=C(C=C(C)N(CC(=O)O)C9=[O+]4)C(=O)NCCN(CCCN(CCNC(=O)C4=C([O]5)C(=[O+]6)N(CC(=O)O)C(C)=C4)CCNC(=O)C4=C([O]7)C(=[O+]8)N(CC(=O)NC[C@H]5CC[C@H](C(=O)N[C@@H](Cc6ccc7ccccc7n6)C(=O)NCCCC[C@H](NC(=O)N[C@@H](CCC(=O)O)C(=O)O)C(=O)O)CC5)C(C)=C4)CCNC2=O)[O+]=C3N1CC(=O)O [Example 17-C monomer-227Th]
2. Cc1cc2c(c(=O)n1CC(=O)O)[O][227Th]13[O]c4c(cc(C)n(CC(=O)O)c4=O)C(=O)NCCN(CCCN(CCNC2=O)CCNC(=O)c2cc(C)n(CC(=O)NCc4ccc(C(=O)N[C@@H](Cc5ccc6ccccc6n5)C(=O)NCCCC[C@H](NC(=O)N[C@@H](CCC(=O)O)C(=O)O)C(=O)O)nc4)c(=O)c2[O]1)CCNC(=O)c1cc(C)n(CC(=O)NCc2ccc(C(=O)N[C@@H](Cc4ccc5ccccc5n4)C(=O)NCCCC[C@H](NC(=O)N[C@@H](CCC(=O)O)C(=O)O)C(=O)O)nc2)c(=O)c1[O]3 [34-C dimer-227Th]

Reply:
1. 0.36
2. 0.38
